This section presents compounds with their documented microsomal CLint at 0.1 uM values.
assay: Microsomal Stability Assay, human liver microsomes; assay type: in vitro ADME; conditions: both sexes, pH 7.4; human liver microsomes 0.1 mg/mL, 0.1 uM compound

# smiles.input, measurement.type, meas.value
measured = [
    ("CS(=O)(=O)NCCOc1cnc(N[C@H]2CC[C@@H](Oc3nc(N4CCOCC4)cc4ncccc34)CC2)nc1", "microsomal CLint at 0.1 uM", "> 116 µL/min/mg"),
    ("CNC(=O)COc1cnc(N[C@H]2CC[C@@H](Oc3nc(N4CCOCC4)cc4ncccc34)CC2)nc1", "microsomal CLint at 0.1 uM", "< 116 µL/min/mg"),
    ("CN(C)C(=O)COc1cnc(C(=O)N[C@H]2CC[C@@H](Oc3nc(N4CCOCC4)cc4ncccc34)CC2)nc1", "microsomal CLint at 0.1 uM", "< 116 µL/min/mg"),
    ("O=C(COc1cnc(N[C@H]2CC[C@@H](Oc3nc(N4CCOCC4)cc4ncccc34)CC2)nc1)N1CCC1", "microsomal CLint at 0.1 uM", "> 116 µL/min/mg"),
    ("CN(C)C(=O)COc1ccc(C(=O)N[C@H]2CC[C@@H](Oc3nc(N4CCOCC4)cc4ncccc34)CC2)cn1", "microsomal CLint at 0.1 uM", "> 116 µL/min/mg"),
]

State the recorded microsomal CLint at 0.1 uM for this entry: CN(C)C(=O)COc1ccnc(N[C@H]2CC[C@@H](Oc3nc(N4CCOCC4)cc4ncccc34)CC2)n1
> 116 µL/min/mg

Item: CN(C)C(=O)Cn1ccc(C(=O)N[C@H]2CC[C@@H](Oc3nc(N4CCOCC4)cc4ncccc34)CC2)c1
< 116 µL/min/mg

What do we get for O=S(=O)(Nc1cnc2cc(N3CCOCC3)nc(O[C@H]3CC[C@@H](Nc4ncccn4)CC3)c2c1)C1CC1 ?
> 116 µL/min/mg

Continue with CN(C)C(=O)COc1cnc(N[C@H]2CC[C@@H](Oc3nc(N4CCOCC4)cc4ncccc34)CC2)nc1
> 116 µL/min/mg

Field entry: CN(C)CCOc1cnc(N[C@H]2CC[C@@H](Oc3nc(N4CCOCC4)cc4ncccc34)CC2)nc1
< 116 µL/min/mg

---

target: DNA-PK phosphorylation at Serine 2056 (Homo sapiens, UniProt P78527); construct: FaDu cells were purchased from ATCC; host or cells: FaDu; assay: Cellular Assay for Inhibition of DNA-PK Phosphorylation at Serine 2056 in FaDu cells (sandwich ELISA, neocarzinostatin); assay type: cell-based; settings: pSer2056 DNA-PK, Table 3
measurement.type: IC50

# compound, IC50
records = [
    ("CN1CCC(Oc2cnc(N[C@H]3CC[C@@H](Oc4nc(N5CCOCC5)cc5ncc(N(Cc6cnn(C)c6[N+](=O)[O-])S(C)(=O)=O)cc45)CC3)nc2)C1 (stereo partly drawn)", "1000 to 10000 nM"),
    ("CC(c1cnn(C)c1[N+](=O)[O-])N(c1cnc2cc(N3CCOCC3)nc(O[C@H]3CC[C@@H](Nc4ncc(OCCN(C)C)cn4)CC3)c2c1)S(C)(=O)=O (stereo partly drawn)", "1000 to 10000 nM"),
    ("CN1CCc2nc(NC3CCC(Oc4nc(N5CCOCC5)cc5ncc(NS(C)(=O)=O)cc45)CC3)ncc2C1 (stereo not drawn)", "< 100 nM"),
    ("CC(c1cnn(C)c1[N+](=O)[O-])N(c1cnc2cc(N3CCOCC3)nc(O[C@H]3CC[C@@H](Nc4ncc(N5CCN(C)CC5)cn4)CC3)c2c1)S(C)(=O)=O (stereo partly drawn)", "1000 to 10000 nM"),
    ("Cn1ncc(CN(c2cnc3cc(N4CCOCC4)nc(O[C@H]4CC[C@@H](Nc5ncccn5)CC4)c3c2)S(C)(=O)=O)c1[N+](=O)[O-]", "1000 to 10000 nM"),
]

Look up IC50 for this compound: CC(c1cnc([N+](=O)[O-])n1C)N(c1cnc2cc(N3CCOCC3)nc(OC3CCC(c4cnccn4)CC3)c2c1)S(C)(=O)=O (stereo not drawn)
1000 to 10000 nM

---

Reported values of microsomal CLint at 0.1 uM for individual entries
assay: Microsomal Stability Assay, human liver microsomes; format: in vitro ADME; settings: both sexes, pH 7.4; human liver microsomes 0.1 mg/mL, 0.1 uM compound

See these solved cases before continuing.
# compound, microsomal CLint at 0.1 uM
measured = [
    ("CN(C)C(=O)Cn1c(=O)n(C2CCOCC2)c2nc(N[C@H]3CC[C@@H](Oc4nc(N5CCOCC5)cc5ncccc45)CC3)ncc21 [Compound 97]", "> 116 µL/min/mg"),
    ("CN(C)C(=O)COc1ccc(N[C@H]2CC[C@@H](Oc3nc(N4CCOCC4)cc4ncccc34)CC2)nc1 [Compound 55]", "> 116 µL/min/mg"),
]

Sample CN(C)C(=O)Cn1ccc2nc(N[C@H]3CC[C@@H](Oc4nc(N5CCOCC5)cc5ncccc45)CC3)ncc21 [Compound 86] — what was its microsomal CLint at 0.1 uM?
< 116 µL/min/mg

Same lookup for c1cnc2cc(N3CCOCC3)nc(O[C@H]3CC[C@@H](Nc4ncc(OCCN5CCNCC5)cn4)CC3)c2c1 [Compound 70] , please.
> 116 µL/min/mg

---

Consider the following compounds and their measured IC50 readings.
molecular target: DNA-PK (Homo sapiens, UniProt P78527); construct: purchased Invitrogen PR9107A; assay: DNA-PK Assay for Biochemical Enzymatic Inhibition (ADP Glo Kinase assay); conditions: DNA-PK enzyme, Table 2

# compound, meas.value
records = [
    ("CN(C)C(=O)COc1cnc(N[C@H]2CC[C@@H](Oc3nc(N4CCOCC4)cc4ncc(NS(C)(=O)=O)cc34)CC2)nc1", "< 0.5 nM"),
    ("CN(C)C(=O)COc1cnc(N[C@H]2CC[C@@H](Oc3nc(N4CCOCC4)cc4ncc(N)cc34)CC2)nc1", "0.5 to 1 nM"),
    ("Cn1c(CN(c2cnc3cc(N4CCOCC4)nc(OC4CCC(NC(=O)c5ncccn5)CC4)c3c2)S(C)(=O)=O)cnc1[N+](=O)[O-] (stereo not drawn)", "10 to 150 nM"),
    ("Cn1c(COc2cnc3cc(N4CCOCC4)nc(O[C@H]4CC[C@@H](Nc5ncccn5)CC4)c3c2)cnc1[N+](=O)[O-]", "10 to 150 nM"),
    ("CN(C)C(=O)COc1cnc(NC2CCC(Oc3nc(N4CCOCC4)cc4ncc(N(Cc5ncc([N+](=O)[O-])n5C)S(C)(=O)=O)cc34)CC2)nc1 (stereo not drawn)", "10 to 150 nM"),
]

IC50 for Cn1c(COC(=O)Nc2cnc3cc(N4CCOCC4)nc(O[C@H]4CC[C@@H](Nc5ncccn5)CC4)c3c2)cnc1[N+](=O)[O-] ?
10 to 150 nM

Same question for CN(C)C(=O)COc1cnc(N[C@H]2CC[C@@H](Oc3nc(N4CCOCC4)cc4ncc(O)cc34)CC2)nc1 please.
< 0.5 nM

Moving on to the next compound: CN(C)C(=O)COc1cnc(N[C@H]2CC[C@@H](Oc3nc(N4CCOCC4)cc4ncc(OCc5cnc([N+](=O)[O-])n5C)cc34)CC2)nc1
10 to 150 nM

For Cn1c(COc2cnc3cc(N4CCOCC4)nc(O[C@H]4CC[C@@H](NC(=O)c5ncccn5)CC4)c3c2)cnc1[N+](=O)[O-] then?
10 to 150 nM

---

# pEC50 per entry
system: pDNA-PK induction in HCT116 tumour spheroids; experiment: Multicellular tumour spheroid + radiation, pDNA-PK (ser2056) inhibition, immunohistochemical endpoint, HCT116; format: cell-based; settings: Homo sapiens, HCT-116; 20 Gy, 2 hours following radiation, 20% O2; Example 9 Study 2; read-out: Spheroid Cell line: HCT116 Immunohistochemical endpoint pDNA-PK inhibition EC50
pEC50: −log10 of the molar value.

Some solved cases for reference:
# compound, measurement.type, meas.value
records = [
    ("O=C(COc1cnc(N[C@H]2CC[C@@H](Oc3nc(N4CCOCC4)cc4ncccc34)CC2)nc1)N1CCSCC1 [Compound 73]", "pEC50", "5.00 to 6.00"),
    ("O=C(NS(=O)(=O)C1CC1)c1cnc2cc(N3CCOCC3)nc(O[C@H]3CC[C@@H](n4ccnc4)CC3)c2c1 [Compound 174]", "pEC50", "4.00 to 5.00"),
    ("CS(=O)(=O)NC(=O)c1cnc2cc(N3CCOCC3)nc(O[C@H]3CC[C@@H](n4ccnc4)CC3)c2c1 [Compound 175]", "pEC50", "4.00 to 5.00"),
    ("Cn1ccnc1COc1cnc(N[C@H]2CC[C@@H](Oc3nc(N4CCOCC4)cc4ncccc34)CC2)nc1 [Compound 79]", "pEC50", "5.00 to 6.00"),
    ("CSc1cnc2cc(N3CCOCC3)nc(O[C@H]3CC[C@@H](Nc4ncccn4)CC3)c2c1 [Compound 200d]", "pEC50", "5.00 to 6.00"),
    ("CN1CCN(CCOc2cnc(N[C@H]3CC[C@@H](Oc4nc(N5CCOCC5)cc5ncccc45)CC3)nc2)CC1 [Compound 69]", "pEC50", "5.00 to 6.00"),
]

Which pEC50 is listed for Cn1cc([C@H]2CC[C@@H](Oc3nc(N4CCOCC4)cc4ncc(OCCO)cc34)CC2)cn1 [Compound 5] ?
5.00 to 6.00

And the next one, CN(C)C(=O)Cn1ccc2nc(N[C@H]3CC[C@@H](Oc4nc(N5CCOCC5)cc5ncccc45)CC3)ncc21 [Compound 86] ?
6.30 to 8.00

# iterate: O=C(O)c1cnc2cc(N3CCOCC3)nc(O[C@H]3CC[C@@H](n4ccnc4)CC3)c2c1 [Compound 165]
4.00 to 5.00

// same read-out, input: CCOC(=O)c1cnc2cc(N3CCOCC3)nc(O[C@H]3CC[C@@H](Nc4ncc(OCC(=O)N(C)C)cn4)CC3)c2c1 [Compound 179]
4.00 to 5.00

Now give it for CS(=O)(=O)c1cnc2cc(N3CCOCC3)nc(O[C@H]3CC[C@@H](NC(=O)c4ncco4)CC3)c2c1 [Compound 204c] too.
5.00 to 6.00

Another compound to look at: CN(C)C(=O)COc1cnc(C(=O)N[C@H]2CC[C@@H](Oc3nc(N4CCOCC4)cc4ncccc34)CC2)nc1 [Compound 125]
5.00 to 6.00

What do you get for CN(C)C(=O)COc1cnc(N[C@H]2CC[C@@H](Oc3nc(N4CCOCC4)cc4ncccc34)CC2)nc1 [Compound 54] ?
6.30 to 8.00

# repeat for CN(C)C(=O)COc1ccc(C(=O)N[C@H]2CC[C@@H](Oc3nc(N4CCOCC4)cc4ncccc34)CC2)cn1 [Compound 117]
6.00 to 6.30
